Values compiled from patent US5776903A.

target_entity: endopeptidase 24-15 (Rattus norvegicus, UniProt P24155)
Sequence (P24155 whole entry): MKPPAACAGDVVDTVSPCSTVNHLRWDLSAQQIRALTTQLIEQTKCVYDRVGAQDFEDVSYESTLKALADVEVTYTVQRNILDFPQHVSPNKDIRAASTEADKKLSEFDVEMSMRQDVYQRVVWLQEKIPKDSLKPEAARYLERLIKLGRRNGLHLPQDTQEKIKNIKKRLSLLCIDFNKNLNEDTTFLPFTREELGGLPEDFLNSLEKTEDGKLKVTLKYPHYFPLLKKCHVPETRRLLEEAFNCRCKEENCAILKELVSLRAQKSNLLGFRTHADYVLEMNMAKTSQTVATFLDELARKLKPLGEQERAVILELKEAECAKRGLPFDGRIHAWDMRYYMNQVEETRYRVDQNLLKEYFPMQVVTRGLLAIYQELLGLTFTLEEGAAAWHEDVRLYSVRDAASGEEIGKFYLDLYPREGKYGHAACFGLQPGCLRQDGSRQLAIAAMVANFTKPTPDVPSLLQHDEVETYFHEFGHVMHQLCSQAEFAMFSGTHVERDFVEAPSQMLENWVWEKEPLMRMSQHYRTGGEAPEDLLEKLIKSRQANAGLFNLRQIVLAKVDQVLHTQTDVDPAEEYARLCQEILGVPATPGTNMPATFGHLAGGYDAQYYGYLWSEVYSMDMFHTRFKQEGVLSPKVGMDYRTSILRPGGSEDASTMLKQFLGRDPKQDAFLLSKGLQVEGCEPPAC
assay_name: Inhibition of neurotensin degradation by purified endopeptidase 24-15 (HPLC), inhibition constant Ki
Label key: met means Ki under 5 nM; not met means Ki of 5 nM or more.

Worked set:
CC(CP(=O)(O)C(Cc1ccccc1)NC(=O)OCc1ccccc1)C(=O)N[C@@H](CCCCN)C(=O)N[C@@H](Cc1ccc(O)cc1)C(=O)O (mixture of isomers) [compound 29, Z--Phe .PSI. (PO2 CH2)Ala--Lys--Tyr] = met
CC(C)CC(CP(=O)(O)C(Cc1ccccc1)NC(=O)OCc1ccccc1)C(=O)N[C@@H](CCCNC(=N)N)C(=O)N[C@@H](Cc1ccccc1)C(=O)O (mixture of isomers) [compound 44, Z--Phe .PSI. (PO2 CH2)Leu--Arg--Phe] = not met

Please check: Ki for N=C(N)NCCC[C@H](NC(=O)CCP(=O)(O)C(Cc1ccccc1)NC(=O)OCc1ccccc1)C(=O)N[C@@H](CCC(N)=O)C(=O)O (mixture of isomers) [compound 7, Z--Phe .PSI. (PO2 CH2)Gly--Arg--Gln] , strictly under 5 nM or not?
not met

Now try CC(CP(=O)(O)C(Cc1ccccc1)NC(=O)OCc1ccccc1)C(=O)N[C@@H](CCCCN)C(=O)N1CCC[C@H]1C(=O)O (mixture of isomers) [compound 41, Z--Phe .PSI. (PO2 CH2)Ala--Lys--Pro] .
not met

* * *

target_entity: endopeptidase 24-15 (Rattus norvegicus, UniProt P24155)
assay_name: Inhibition of neurotensin degradation by purified endopeptidase 24-15 (HPLC), inhibition constant Ki
condition_label: selectivity relative to endopeptidase 24-16
Parameter: SELECTIVITY (ratio Ki24-16 /Ki24-15). Scope: all listed entries.
Just the number, please, no unit after it.

CC(C)[C@H](NC(=O)[C@H](CCCNC(=N)N)NC(=O)CCP(=O)(O)C(Cc1ccccc1)NC(=O)OCc1ccccc1)C(=O)O (mixture of isomers) = 121

What value of SELECTIVITY (ratio Ki24-16 /Ki24-15) has been recorded for this entry: N=C(N)NCCC[C@H](NC(=O)CCP(=O)(O)C(Cc1ccccc1)NC(=O)OCc1ccccc1)C(=O)NCC(=O)O (mixture of isomers)
120

How about CCCC[C@H](NC(=O)[C@H](CCCCN)NC(=O)C(C)CP(=O)(O)C(Cc1ccccc1)NC(=O)OCc1ccccc1)C(=O)O (mixture of isomers) ?
257

Further, for CSCC[C@H](NC(=O)[C@H](CCCCN)NC(=O)C(C)CP(=O)(O)C(Cc1ccccc1)NC(=O)OCc1ccccc1)C(=O)O (mixture of isomers) ?
1957

How about CSCC[C@H](NC(=O)[C@H](CCCNC(=N)N)NC(=O)CCP(=O)(O)C(Cc1ccccc1)NC(=O)OCc1ccccc1)C(=O)O (mixture of isomers) ?
377

* * *

target_entity: endopeptidase 24-15 (Rattus norvegicus)
assay_name: Inhibition of neurotensin degradation by purified endopeptidase 24-15 (HPLC), inhibition constant Ki
Some compounds, each annotated with its measured Ki.
Give the quantity in µM, number only.

Some compounds with recorded Ki:
N=C(N)NCCC[C@H](NC(=O)CCP(=O)(O)C(Cc1ccccc1)NC(=O)OCc1ccccc1)C(=O)N[C@@H](Cc1c[nH]cn1)C(=O)O (mixture of isomers) [compound 14, Z--Phe .PSI. (PO2 CH2)Gly--Arg--His] = 0.0232
N=C(N)NCCC[C@H](NC(=O)CCP(=O)(O)C(Cc1ccccc1)NC(=O)OCc1ccccc1)C(=O)N[C@@H](CCCCN)C(=O)O (mixture of isomers) [compound 18, Z--Phe .PSI. (PO2 CH2)Gly--Arg--Lys] = 0.138
CC(CP(=O)(O)C(Cc1ccccc1)NC(=O)OCc1ccccc1)C(=O)N[C@@H](CCCCN)C(=O)N[C@@H](Cc1c[nH]cn1)C(=O)O (mixture of isomers) [compound 35, Z--Phe .PSI. (PO2 CH2)Ala--Lys--His] = 0.00713

State the recorded Ki for this entry: CC[C@H](C)[C@H](NC(=O)[C@H](CCCNC(=N)N)NC(=O)CCP(=O)(O)C(Cc1ccccc1)NC(=O)OCc1ccccc1)C(=O)O (mixture of isomers) [compound 9, Z--Phe .PSI. (PO2 CH2)Gly--Arg--Ile]
0.0096

* * *

target_entity: endopeptidase 24-15 (Rattus norvegicus)
assay_name: Inhibition of neurotensin degradation by purified endopeptidase 24-15 (HPLC), inhibition constant Ki
Checkbox rule: Ki lower than 10 nM = satisfied; Ki not lower than 10 nM = not satisfied.

Past entries and their recorded results:
CSCC[C@H](NC(=O)[C@H](CCCCN)NC(=O)C(C)CP(=O)(O)C(Cc1ccccc1)NC(=O)OCc1ccccc1)C(=O)O (mixture of isomers) = satisfied
N=C(N)NCCC[C@H](NC(=O)CCP(=O)(O)C(Cc1ccccc1)NC(=O)OCc1ccccc1)C(=O)N[C@@H](CCC(=O)O)C(=O)O (mixture of isomers) = not satisfied
CC(CP(=O)(O)C(Cc1ccccc1)NC(=O)OCc1ccccc1)C(=O)N[C@@H](CCCCN)C(=O)N[C@H](C(=O)O)C(C)C (mixture of isomers) = satisfied
N=C(N)NCCC[C@H](NC(=O)CCP(=O)(O)C(Cc1ccccc1)NC(=O)OCc1ccccc1)C(=O)N1CCC[C@H]1C(=O)O (mixture of isomers) = not satisfied
CC(CP(=O)(O)C(Cc1ccccc1)NC(=O)OCc1ccccc1)C(=O)N[C@@H](CCCCN)C(=O)N[C@@H](CO)C(=O)O (mixture of isomers) = not satisfied
CC(CP(=O)(O)C(Cc1ccccc1)NC(=O)OCc1ccccc1)C(=O)N[C@@H](CCCCN)C(=O)N[C@@H](Cc1ccccc1)C(=O)O (mixture of isomers) = satisfied

Now consider the entry below.
Say whether its Ki is strictly beneath 10 nM. Entry: CC[C@H](C)[C@H](NC(=O)[C@H](CCCCN)NC(=O)C(C)CP(=O)(O)C(Cc1ccccc1)NC(=O)OCc1ccccc1)C(=O)O (mixture of isomers)
satisfied

* * *

Each entry below carries its reported Ki.
target_entity: endopeptidase 24-16 (Homo sapiens)
Sequence (Q9BYT8 38-704): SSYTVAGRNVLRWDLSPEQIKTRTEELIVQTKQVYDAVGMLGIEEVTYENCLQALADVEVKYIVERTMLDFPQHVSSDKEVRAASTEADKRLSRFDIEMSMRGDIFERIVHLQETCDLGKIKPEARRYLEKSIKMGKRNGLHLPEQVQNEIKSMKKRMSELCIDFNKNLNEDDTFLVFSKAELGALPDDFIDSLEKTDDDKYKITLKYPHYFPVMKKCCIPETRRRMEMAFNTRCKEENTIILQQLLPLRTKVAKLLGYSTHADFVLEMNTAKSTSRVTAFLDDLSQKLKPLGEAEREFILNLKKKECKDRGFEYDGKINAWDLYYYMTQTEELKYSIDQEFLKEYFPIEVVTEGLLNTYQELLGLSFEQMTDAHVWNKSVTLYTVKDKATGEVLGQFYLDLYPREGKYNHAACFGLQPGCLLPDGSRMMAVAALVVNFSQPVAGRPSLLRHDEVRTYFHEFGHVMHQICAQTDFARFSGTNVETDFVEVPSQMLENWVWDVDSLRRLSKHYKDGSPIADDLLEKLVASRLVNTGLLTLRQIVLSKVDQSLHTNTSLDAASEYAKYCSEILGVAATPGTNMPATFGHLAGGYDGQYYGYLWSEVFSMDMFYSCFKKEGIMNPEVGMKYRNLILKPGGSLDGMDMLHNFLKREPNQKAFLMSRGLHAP
assay_name: Inhibition of neurotensin degradation by purified endopeptidase 24-16 (HPLC), inhibition constant Ki
Assay type: biochemical
condition_label: neurotensin 20 μmole/l, 1 hour at 30° C., tris-HCl pH 7.5
Just the number please, in nM, no unit attached.

The cases that follow already have their Ki on record.
N=C(N)NCCC[C@H](NC(=O)CCP(=O)(O)C(Cc1ccccc1)NC(=O)OCc1ccccc1)C(=O)N[C@@H](Cc1c[nH]c2ccccc12)C(=O)O (mixture of isomers) [compound 10, Z--Phe .PSI. (PO2 CH2)Gly--Arg--Trp] = 2660
CSCC[C@H](NC(=O)[C@H](CCCNC(=N)N)NC(=O)C(C)CP(=O)(O)C(Cc1ccccc1)NC(=O)OCc1ccccc1)C(=O)O (mixture of isomers) [compound 42, Z--Phe .PSI. (PO2 CH2)Ala--Arg--Met] = 88
N=C(N)NCCC[C@H](NC(=O)CCP(=O)(O)C(Cc1ccccc1)NC(=O)OCc1ccccc1)C(=O)N[C@@H](Cc1c[nH]cn1)C(=O)O (mixture of isomers) [compound 14, Z--Phe .PSI. (PO2 CH2)Gly--Arg--His] = 3010
N=C(N)NCCC[C@H](NC(=O)CCP(=O)(O)C(Cc1ccccc1)NC(=O)OCc1ccccc1)C(=O)N[C@@H](CCC(=O)O)C(=O)O (mixture of isomers) [compound 19, Z--Phe .PSI. (PO2 CH2)Gly--Arg--Glu] = 8150
N=C(N)NCCC[C@H](NC(=O)CCP(=O)(O)C(Cc1ccccc1)NC(=O)OCc1ccccc1)C(=O)N[C@@H](Cc1ccccc1)C(=O)O (mixture of isomers) [compound 4, Z--Phe .PSI. (PO2 CH2)Gly--Arg--Phe] = 1100

So what's the measured Ki for this one? CC[C@H](C)[C@H](NC(=O)[C@H](CCCCN)NC(=O)C(C)CP(=O)(O)C(Cc1ccccc1)NC(=O)OCc1ccccc1)C(=O)O (mixture of isomers) [compound 27, Z--Phe .PSI. (PO2 CH2)Ala--Lys--Ile]
1260

# iterate: N=C(N)NCCC[C@H](NC(=O)CCP(=O)(O)C(Cc1ccccc1)NC(=O)OCc1ccccc1)C(=O)NCC(=O)O (mixture of isomers) [compound 11, Z--Phe .PSI. (PO2 CH2)Gly--Arg--Gly]
1660

Try the compound CC(CP(=O)(O)C(Cc1ccccc1)NC(=O)OCc1ccccc1)C(=O)N[C@@H](CCCCN)C(=O)N[C@@H](Cc1ccccc1)C(=O)O (mixture of isomers) [compound 25, Z--Phe .PSI. (PO2 CH2)Ala--Lys--Phe]
1650

Another compound to check: CSCC[C@H](NC(=O)[C@H](CCCCN)NC(=O)C(C)CP(=O)(O)C(Cc1ccccc1)NC(=O)OCc1ccccc1)C(=O)O (mixture of isomers) [compound 22, Z--Phe .PSI. (PO2 CH2)Ala--Lys--Met]
225

Now this one: CC[C@H](C)[C@H](NC(=O)[C@H](CCCNC(=N)N)NC(=O)CCP(=O)(O)C(Cc1ccccc1)NC(=O)OCc1ccccc1)C(=O)O (mixture of isomers) [compound 9, Z--Phe .PSI. (PO2 CH2)Gly--Arg--Ile]
589

Follow-up item: N=C(N)NCCC[C@H](NC(=O)CCP(=O)(O)C(Cc1ccccc1)NC(=O)OCc1ccccc1)C(=O)N[C@@H](Cc1ccc(O)cc1)C(=O)O (mixture of isomers) [compound 5, Z--Phe .PSI. (PO2 CH2)Gly--Arg--Tyr]
596

Now consider N=C(N)NCCC[C@H](NC(=O)CCP(=O)(O)C(Cc1ccccc1)NC(=O)OCc1ccccc1)C(=O)N[C@@H](CCCCN)C(=O)O (mixture of isomers) [compound 18, Z--Phe .PSI. (PO2 CH2)Gly--Arg--Lys] .
25700
